tested on: SW620; assay: Inhibition of cancer cell growth as measured by cell number, SW620; format: cell-based, human; details: Homo sapiens, SW-620, 48 h, read-out: IC50 SW620, cell number, Sulforhodamine B, 48 hours exposure; Table 4;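 further: SW620 was included as a cell line with little or no EGFR or HER2/neu expression, in contrast to receptor-overexpressing lines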
Classification by IC50 follows these ranges: low = under 4 µg/mL, middle = from 4 µg/mL up to 30 µg/mL, high = 30 µg/mL and over

Known results for compounds:
1) C=CC(=O)Nc1ccc2ncc(C#N)c(Nc3cccc(Br)c3)c2c1 [Example 18]    low
2) COc1cc2ncc(C#N)c(Nc3cccc(Br)c3)c2cc1N [Example 7]    middle
3) CC#CC(=O)Nc1ccc2ncc(C#N)c(Nc3cccc(Br)c3)c2c1 [Example 15]    high
4) COc1cc2ncc(C#N)c(Nc3cccc(C(F)(F)F)c3)c2cc1OC [Example 42]    high
5) COc1cc2ncc(C#N)c(Nc3ccc(F)cc3)c2cc1OC [Example 46]    high
6) COc1cc2ncc(C#N)c(Oc3cccc(Br)c3)c2cc1OC [Example 49]    high
7) COc1cc2ncc(C#N)c(Nc3cccc(F)c3)c2cc1OC [Example 35]    middle
8) N#Cc1cnc2ccc(N)cc2c1Nc1cccc(Br)c1 [Example 14]    high

Could you tell me which band COc1cc2ncc(C#N)c(Nc3cccc(C#N)c3)c2cc1OC [Example 45] belongs to?
high
